Each recorded value in this set is attributed to paper PMC6748986.

assayed.target: CepR (Burkholderia cenocepacia, UniProt B4EMD0)
Sequence (B4EMD0 1-239): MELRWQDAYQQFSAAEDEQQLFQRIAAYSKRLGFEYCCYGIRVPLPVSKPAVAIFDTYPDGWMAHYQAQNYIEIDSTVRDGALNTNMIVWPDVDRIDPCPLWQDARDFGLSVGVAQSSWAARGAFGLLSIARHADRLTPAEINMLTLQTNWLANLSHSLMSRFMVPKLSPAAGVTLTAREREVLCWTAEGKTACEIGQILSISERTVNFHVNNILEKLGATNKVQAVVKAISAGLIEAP
assay.notes: CepR agonism in E. coli β-galactosidase reporter (Ec-reporter) JLD271 [pJN105-cepR + pSC11-cepI]
Format: cell-based, B. cenocepacia
settings: Ec-reporter, agonism dose-response
pEC50: −log10 of the molar value.
// not satisfied strictly below 9 in pEC50; satisfied otherwise

compound: O=C(CCc1ccc(C(F)(F)F)cc1)N[C@H]1CCOC1=O
assayed.target: CepR (Burkholderia cenocepacia, UniProt B4EMD0)
answer.label: satisfied

Kindly determine if pEC50 recorded for Cc1ccc(CCC(=O)N[C@H]2CCOC2=O)cc1 is above or exactly 9.
not satisfied

Kindly determine if pEC50 recorded for CCCCCCCCCCCC(=O)N[C@H]1CCOC1=O [Compound C12-AHL, Dodecanoyl L-homoserine lactone, reference compound] is above or exactly 9.
not satisfied

Kindly determine if pEC50 recorded for O=C(CCC1CCCCC1)N[C@H]1CCOC1=O is above or exactly 9.
not satisfied

Kindly determine if pEC50 recorded for CCCCCC(=O)CC(=O)N[C@H]1CCOC1=O [3’O-C8-AHL, reference compound] is above or exactly 9.
not satisfied

Kindly determine if pEC50 recorded for CCCCCC(=O)CC(=O)N[C@@H]1CCOC1=O is above or exactly 9.
not satisfied

Kindly determine if pEC50 recorded for O=C(CCc1ccc(Br)cc1)N[C@H]1CCOC1=O is above or exactly 9.
satisfied
